# Test system: Candida albicans SNY425 biofilm
# experimentSummary: biofilm OD600 with compound plus antifungal (OD600 (absorbance)); higher = more biofilm remaining
# conditionNotes: assay detail: disruption of 24-h mature biofilm (compound + antifungal for a second 24 h)
valueKind: biofilm OD600
Please reply with the value in numeric form only.

These recorded examples may help you get a feel for the data.
COC(=O)N[C@H](C(=O)N[C@@H](Cc1ccccc1)[C@@H](O)CN(Cc1ccc(-c2ccccn2)cc1)NC(=O)[C@@H](NC(=O)OC)C(C)(C)C)C(C)(C)C [atazanavir] + OC(Cn1cncn1)(Cn1cncn1)c1ccc(F)cc1F [fluconazole] (first compound 12.5 µM) ... 0.267
O=C1Nc2ccc([N+](=O)[O-])cc2C1=O [5-Nitroisatin] + CC[C@H](C)C[C@H](C)CCCCCCCCC(=O)N[C@H]1C[C@@H](O)[C@@H](NCCN)NC(=O)[C@@H]2[C@@H](O)CCN2C(=O)[C@H]([C@H](O)CCN)NC(=O)[C@H]([C@H](O)[C@@H](O)c2ccc(O)cc2)NC(=O)[C@@H]2C[C@@H](O)CN2C(=O)[C@H]([C@@H](C)O)NC1=O [caspofungin] (first compound 12.5 µM) ... 0.255
O=c1oc(Cl)c(Cl)c2ccccc12 [3,4-Dichloroisocoumarin] + CC[C@H](C)C[C@H](C)CCCCCCCCC(=O)N[C@H]1C[C@@H](O)[C@@H](NCCN)NC(=O)[C@@H]2[C@@H](O)CCN2C(=O)[C@H]([C@H](O)CCN)NC(=O)[C@H]([C@H](O)[C@@H](O)c2ccc(O)cc2)NC(=O)[C@@H]2C[C@@H](O)CN2C(=O)[C@H]([C@@H](C)O)NC1=O [caspofungin] (first compound 12.5 µM) ... 0.246

Entry COC(=O)C[C@H](NC(=O)[C@H](C)NC(=O)[C@@H](NC(=O)OCc1ccccc1)C(C)C)C(=O)CF + CC[C@H](C)C[C@H](C)CCCCCCCCC(=O)N[C@H]1C[C@@H](O)[C@@H](NCCN)NC(=O)[C@@H]2[C@@H](O)CCN2C(=O)[C@H]([C@H](O)CCN)NC(=O)[C@H]([C@H](O)[C@@H](O)c2ccc(O)cc2)NC(=O)[C@@H]2C[C@@H](O)CN2C(=O)[C@H]([C@@H](C)O)NC1=O [caspofungin] (first compound 12.5 µM) : reported biofilm OD600 = ? 0.296

One more compound: CC1(C)C[C@@H]1C(=O)N/C(=C\CCCCSC[C@H](N)C(=O)O)C(=O)O [Cilastatin] + C[C@@H]1[C@H](O)[C@@H](C)/C=C/C=C/C=C/C=C/C=C/C=C/C=C/[C@H](O[C@@H]2O[C@H](C)[C@@H](O)[C@H](N)[C@@H]2O)C[C@@H]2O[C@](O)(C[C@@H](O)C[C@@H](O)[C@H](O)CC[C@@H](O)C[C@@H](O)CC(=O)O[C@H]1C)C[C@H](O)[C@H]2C(=O)O [amphotericin B] (first compound 12.5 µM) 0.293

One more compound: Nc1ccc(CC(CC(=O)O)C(=O)O)cc1 [4-Amino-D, L-benzylsuccinic acid] + CC[C@H](C)C[C@H](C)CCCCCCCCC(=O)N[C@H]1C[C@@H](O)[C@@H](NCCN)NC(=O)[C@@H]2[C@@H](O)CCN2C(=O)[C@H]([C@H](O)CCN)NC(=O)[C@H]([C@H](O)[C@@H](O)c2ccc(O)cc2)NC(=O)[C@@H]2C[C@@H](O)CN2C(=O)[C@H]([C@@H](C)O)NC1=O [caspofungin] (first compound 12.5 µM) 0.295

* * *

# Test system: Candida albicans SNY425 biofilm
# experimentSummary: biofilm OD600 with compound plus antifungal (OD600 (absorbance)); higher = more biofilm remaining
# conditionNotes: assay detail: disruption of 24-h mature biofilm (compound + antifungal for a second 24 h)
Structures can show the parent of a compound that is named as a salt.
# Lookup of reported biofilm OD600 keyed by entry
Please reply with the value in numeric form only.

Entry CCN1C(=O)C=CC1=O [N-Ethylmaleimide] + OC(Cn1cncn1)(Cn1cncn1)c1ccc(F)cc1F [fluconazole] (first compound 4 µM) : reported biofilm OD600 = ? 0.278

One more compound: CCCCC[C@H](CC(=O)NO)C(=O)N[C@H](C(=O)N1CCC[C@H]1CO)C(C)C [Actinonin] + C[C@@H]1[C@H](O)[C@@H](C)/C=C/C=C/C=C/C=C/C=C/C=C/C=C/[C@H](O[C@@H]2O[C@H](C)[C@@H](O)[C@H](N)[C@@H]2O)C[C@@H]2O[C@](O)(C[C@@H](O)C[C@@H](O)[C@H](O)CC[C@@H](O)C[C@@H](O)CC(=O)O[C@H]1C)C[C@H](O)[C@H]2C(=O)O [amphotericin B] (first compound 12.5 µM) 0.255

One more compound: NC(=O)c1cccc(-c2cccc(OC(=O)NC3CCCCC3)c2)c1 + C[C@@H]1[C@H](O)[C@@H](C)/C=C/C=C/C=C/C=C/C=C/C=C/C=C/[C@H](O[C@@H]2O[C@H](C)[C@@H](O)[C@H](N)[C@@H]2O)C[C@@H]2O[C@](O)(C[C@@H](O)C[C@@H](O)[C@H](O)CC[C@@H](O)C[C@@H](O)CC(=O)O[C@H]1C)C[C@H](O)[C@H]2C(=O)O [amphotericin B] (first compound 12.5 µM) 0.295

One more compound: CCCC[C@@H](C=O)NC(=O)[C@H](CC(C)C)NC(=O)OCc1ccccc1 [Calpeptin] + CC[C@H](C)C[C@H](C)CCCCCCCCC(=O)N[C@H]1C[C@@H](O)[C@@H](NCCN)NC(=O)[C@@H]2[C@@H](O)CCN2C(=O)[C@H]([C@H](O)CCN)NC(=O)[C@H]([C@H](O)[C@@H](O)c2ccc(O)cc2)NC(=O)[C@@H]2C[C@@H](O)CN2C(=O)[C@H]([C@@H](C)O)NC1=O [caspofungin] (first compound 12.5 µM) 0.263

One more compound: CCN1C(=O)C=CC1=O [N-Ethylmaleimide] + C[C@@H]1[C@H](O)[C@@H](C)/C=C/C=C/C=C/C=C/C=C/C=C/C=C/[C@H](O[C@@H]2O[C@H](C)[C@@H](O)[C@H](N)[C@@H]2O)C[C@@H]2O[C@](O)(C[C@@H](O)C[C@@H](O)[C@H](O)CC[C@@H](O)C[C@@H](O)CC(=O)O[C@H]1C)C[C@H](O)[C@H]2C(=O)O [amphotericin B] (first compound 4 µM) 0.304

One more compound: CC(C)C[C@H](NC(=O)[C@H]1O[C@@H]1C(=O)O)C(=O)NCCCCN=C(N)N + OC(Cn1cncn1)(Cn1cncn1)c1ccc(F)cc1F [fluconazole] (first compound 12.5 µM) 0.255

One more compound: CC(C)c1nc(CN(C)C(=O)N[C@H](C(=O)N[C@@H](Cc2ccccc2)C[C@H](O)[C@H](Cc2ccccc2)NC(=O)OCc2cncs2)C(C)C)cs1 [ritonavir] + OC(Cn1cncn1)(Cn1cncn1)c1ccc(F)cc1F [fluconazole] (first compound 12.5 µM) 0.249

One more compound: CCCC[C@@H](C=O)NC(=O)OC(C)(C)C + C[C@@H]1[C@H](O)[C@@H](C)/C=C/C=C/C=C/C=C/C=C/C=C/C=C/[C@H](O[C@@H]2O[C@H](C)[C@@H](O)[C@H](N)[C@@H]2O)C[C@@H]2O[C@](O)(C[C@@H](O)C[C@@H](O)[C@H](O)CC[C@@H](O)C[C@@H](O)CC(=O)O[C@H]1C)C[C@H](O)[C@H]2C(=O)O [amphotericin B] (first compound 12.5 µM) 0.259

One more compound: CCOC(=O)c1ccc(OC(=O)CCCCCNC(=N)N)cc1 [Gabexate mesylate] + C[C@@H]1[C@H](O)[C@@H](C)/C=C/C=C/C=C/C=C/C=C/C=C/C=C/[C@H](O[C@@H]2O[C@H](C)[C@@H](O)[C@H](N)[C@@H]2O)C[C@@H]2O[C@](O)(C[C@@H](O)C[C@@H](O)[C@H](O)CC[C@@H](O)C[C@@H](O)CC(=O)O[C@H]1C)C[C@H](O)[C@H]2C(=O)O [amphotericin B] (first compound 12.5 µM) 0.281

One more compound: CC(C)(C)NC(=O)[C@@H]1C[C@@H]2CCCC[C@@H]2CN1C[C@@H](O)[C@H](Cc1ccccc1)NC(=O)[C@H](CC(N)=O)NC(=O)c1ccc2ccccc2n1 [saquinavir] + CC[C@H](C)C[C@H](C)CCCCCCCCC(=O)N[C@H]1C[C@@H](O)[C@@H](NCCN)NC(=O)[C@@H]2[C@@H](O)CCN2C(=O)[C@H]([C@H](O)CCN)NC(=O)[C@H]([C@H](O)[C@@H](O)c2ccc(O)cc2)NC(=O)[C@@H]2C[C@@H](O)CN2C(=O)[C@H]([C@@H](C)O)NC1=O [caspofungin] (first compound 12.5 µM) 0.148

One more compound: CC(NC(=O)C(Cc1ccccc1)NC(=O)OCc1ccccc1)C(=O)CF (configuration not stated) + OC(Cn1cncn1)(Cn1cncn1)c1ccc(F)cc1F [fluconazole] (first compound 12.5 µM) 0.287

One more compound: Cc1ccc(S(=O)(=O)N[C@@H](Cc2ccccc2)C(=O)CCl)cc1 + CC[C@H](C)C[C@H](C)CCCCCCCCC(=O)N[C@H]1C[C@@H](O)[C@@H](NCCN)NC(=O)[C@@H]2[C@@H](O)CCN2C(=O)[C@H]([C@H](O)CCN)NC(=O)[C@H]([C@H](O)[C@@H](O)c2ccc(O)cc2)NC(=O)[C@@H]2C[C@@H](O)CN2C(=O)[C@H]([C@@H](C)O)NC1=O [caspofungin] (first compound 4 µM) 0.251
